The reported measurements were obtained from ChEMBL document CHEMBL3271946.

test: Half life in 0.025 M NaHCo3 solution assessed as compound cyclization at 5x10'-4 M; type: physicochemical
Would you mind telling me the reported half-life at 500 µM of each entry?
Numbers only, in min.

1) CC(COc1ccccc1)N(CCCl)Cc1ccccc1.Cl (configuration not stated) [PHENOXYBENZAMINE HYDROCHLORIDE] : 2.3

Name the recorded half-life at 500 µM of the item Cl.ClCCN(Cc1ccccc1)Cc1ccccc1 in your answer.
6.1
